# credit: patent US20250368649A1

# systemUnderTest: KRas G12A (Homo sapiens, UniProt P01116, G12A)
# Sequence (P01116 1-169 isoform P01116-2 G12A): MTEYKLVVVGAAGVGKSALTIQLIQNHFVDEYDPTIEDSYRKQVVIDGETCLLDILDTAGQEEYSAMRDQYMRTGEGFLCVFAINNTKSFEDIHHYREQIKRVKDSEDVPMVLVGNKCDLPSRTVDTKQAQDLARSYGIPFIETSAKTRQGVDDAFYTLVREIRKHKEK
# Assay type: binding
# assayConditions: single point, 10 nM compound, read-out: Binding to KRas (% inhibition at 10 nM) G12A

>  <molecule>
CCc1c(F)ccc2cc(O)cc(N3CCc4c(nc(OC[C@@]56CCCN5C[C@H](F)C6)nc4N4CCCc5nc(C(=O)N(C)C)sc5C4)C3)c12

>  <inhibition at 0.01 µM [%]>
63

$$$$
>  <molecule>
CCc1c(F)ccc2cc(O)cc(N3CCc4c(nc(OC[C@@]56CCCN5C[C@H](F)C6)nc4N4CCCn5nc(C(=O)NCCOC)cc5C4)C3)c12

>  <inhibition at 0.01 µM [%]>
94

$$$$
>  <molecule>
CCc1c(F)ccc2cc(O)cc(N3CCc4c(nc(OC[C@@]56CCCN5C[C@H](F)C6)nc4N4CCCn5nc(C(=O)N6CC7CCC6CC7)cc5C4)C3)c12

>  <inhibition at 0.01 µM [%]>
92

$$$$
>  <molecule>
CCc1c(F)ccc2cc(O)cc(N3CCc4c(nc(OC[C@@]56CCCN5C[C@H](F)C6)nc4N4CCCn5nc(C(=O)N6CC7CCC(C6)N7)cc5C4)C3)c12

>  <inhibition at 0.01 µM [%]>
97

$$$$
>  <molecule>
CCc1c(F)ccc2cc(O)cc(N3CCc4c(nc(OC[C@@]56CCCN5C[C@H](F)C6)nc4N4CCCn5nc(C(=O)NC6CCC6)cc5C4)C3)c12

>  <inhibition at 0.01 µM [%]>
90

$$$$
>  <molecule>
CCc1c(F)ccc2cc(O)cc(N3CCc4c(nc(OC[C@@]56CCCN5C[C@H](F)C6)nc4N4CCCn5nc(C(=O)N6C[C@@H]7C[C@H](C6)[C@H](O)C7)cc5C4)C3)c12

>  <inhibition at 0.01 µM [%]>
98

$$$$
>  <molecule>
CCc1c(F)ccc2cc(O)cc(N3CCc4c(nc(OC[C@@]56CCCN5C[C@H](F)C6)nc4N4CCCn5nc(C(=O)N(C)C)nc5C4)C3)c12

>  <inhibition at 0.01 µM [%]>
100

$$$$
>  <molecule>
CCc1c(F)ccc2cc(O)cc(N3CCc4c(nc(OC[C@@]56CCCN5C[C@H](F)C6)nc4N4CCCn5nc(NC)c(F)c5C4)C3)c12

>  <inhibition at 0.01 µM [%]>
73

$$$$
>  <molecule>
CCc1c(F)ccc2cc(O)cc(N3CCc4c(nc(OC[C@@]56CCCN5C[C@H](F)C6)nc4N4CCCn5nc(C(=O)N6CC7CC(C6)N7)cc5C4)C3)c12

>  <inhibition at 0.01 µM [%]>
97

$$$$
>  <molecule>
CCc1c(F)ccc2cc(O)cc(N3CCc4c(nc(OC[C@@]56CCCN5C[C@H](F)C6)nc4N4CCCn5nc(C(=O)N6CC[C@@H]7CC[C@H]6C7)cc5C4)C3)c12

>  <inhibition at 0.01 µM [%]>
90

$$$$
>  <molecule>
CCc1c(F)ccc2cc(O)cc(N3CCc4c(nc(OC[C@@]56CCCN5C[C@H](F)C6)nc4N4CCCC5(CC(=O)NC5=O)C4)C3)c12 (some centres unmarked)

>  <inhibition at 0.01 µM [%]>
54

$$$$
>  <molecule>
CCNC(=O)c1nn2c(c1C)CN(c1nc(OC[C@@]34CCCN3C[C@H](F)C4)nc3c1CCN(c1cc(O)cc4ccc(F)c(CC)c14)C3)CCC2

>  <inhibition at 0.01 µM [%]>
96

$$$$
>  <molecule>
CCc1c(C(=O)N(C)C)nn2c1CN(c1nc(OC[C@@]34CCCN3C[C@H](F)C4)nc3c1CCN(c1cc(O)cc4ccc(F)c(CC)c14)C3)CCC2

>  <inhibition at 0.01 µM [%]>
99

$$$$
>  <molecule>
CCc1c(F)ccc2cc(O)cc(N3CCc4c(nc(OC[C@@]56CCCN5C[C@H](F)C6)nc4N4CCCn5nc(C(=O)NC(C)C)c(Cl)c5C4)C3)c12

>  <inhibition at 0.01 µM [%]>
92

$$$$
>  <molecule>
CCc1c(F)ccc2cc(O)cc(N3CCc4c(nc(OC[C@@]56CCCN5C[C@H](F)C6)nc4N4CCCn5nc(C(=O)N6C[C@@H](C)N[C@@H](C)C6)cc5C4)C3)c12

>  <inhibition at 0.01 µM [%]>
98

$$$$
>  <molecule>
CCc1c(F)ccc2cc(O)cc(N3CCc4c(nc(OC[C@@]56CCCN5C[C@H](F)C6)nc4N4CCCn5nc(C(=O)N6CCC7CC76)cc5C4)C3)c12 (some centres unmarked)

>  <inhibition at 0.01 µM [%]>
97

$$$$
>  <molecule>
CCc1c(F)ccc2cc(O)cc(N3CCc4c(nc(OC[C@@]56CCCN5C[C@H](F)C6)nc4N4CCCn5nc(C(=O)N(CC)CC)cc5C4)C3)c12

>  <inhibition at 0.01 µM [%]>
95

$$$$
